Data origin: paper PMC7321340

measurement-label: increase of hydrophilicity (logD) vs non-glycated reference
Please append the unit to your numeric answer.

stdin: What does the data say about its increase of hydrophilicity (logD) vs non-glycated reference? Entry: CCCC[C@H](NC(=O)[C@H](CC(C)C)NC(=O)[C@H](Cc1c[nH]cn1)NC(=O)CNC(=O)[C@@H](NC(=O)[C@H](C)NC(=O)[C@H](Cc1c[nH]c2ccccc12)NC(=O)[C@H](CCC(N)=O)NC(=O)CCNC(=O)CCNC(=O)CCNC(=O)Cn1cc(CN[C@@H](CCCCNC(=O)CCCOC[C@H](O)[C@@H](O)[C@H](O)[C@H](O)CO)C(=O)O)nn1)C(C)C)C(N)=O [[^99mTc][Tc(CO)3(12)], metal not drawn]
stdout: 0.7 log units
